Sourced from the EternaBench riboswitch data

Tested on: MS2 coat protein
Experiment: apparent Kd, MS2 coat protein; higher = weaker binding; RNA-MaP array
Conditions: ligand present: flavin mononucleotide; designed as: OFF switch for flavin mononucleotide
recorded_endpoint: apparent Kd (nM)
Enter your answer as a number in nM; do not include the unit.

Reference set (3 entries):
>  <chain_sequence>
GCCUAUAUUGUCAGGAUAUGCAUAAAGGAAAAGAAGCAGAAGGGACAUGAGGAUCACCCAUGUUACAGCCAAUA

>  <apparent Kd [nM]>
12.6

$$$$
>  <chain_sequence>
GCUAUGAACGUAGGAUAUGAAGCCUGGCUUGGUUCAGAAGGACGUGAGUAAGUGAGGUCCUGACAUGAGGAUCACCCAUGUACA

>  <apparent Kd [nM]>
31.7

$$$$
>  <chain_sequence>
UCAACAUGAGGAUCACCCAUGUCAUCGGCGUUCUCAGACACUAGAAGGAACAGGCGUAUCUGCGGUUAGGAUAUAGACACACAU

>  <apparent Kd [nM]>
31

$$$$

Send back MS2 coat protein apparent Kd of "AUCAAGUCAGGAUAUGAACUAAAGAUGGAAAACGUAGCAAAACAGAAGGGACAUGAGGAUCACCCAUGUGGAAG" only.
17

Send back MS2 coat protein apparent Kd of "GUCGUAGGCUAAGGAUAUAGUGAAAGAGUGAAGGCCUGAUCAGACAUGAGGAUCACCCAUGUGAACUAGAAGGUAGGCAAGGCU" only.
12.5

Send back MS2 coat protein apparent Kd of "UAGGUUAGGUAGAAGGGCAAGUAAUUCCACAUGAGGAUCACCCAUGUUCCUGUUUGGGAGGCUGUGCAGGAUAUACGAAAAUAA" only.
153

Send back MS2 coat protein apparent Kd of "CGCCGUGAUUAGAAGGGUGGUGGGAAUCUUAUCACAGGAUAUAAAUAGGGCCGCUACAUGAGGAUCACCCAUGUCCUCCGGUCA" only.
165

Send back MS2 coat protein apparent Kd of "ACCUGGCGGCAGAAGGCCCGCGAUUAACGUAAGGGAGGAUAUGCAUUGUGCGGUGGGACAUGAGGAUCACCCAUGUGCAGCCAG" only.
409

Send back MS2 coat protein apparent Kd of "GGCCUUUCGGUAAGGAUAUCCCUCCGCGCAGAUUGGGAGAAGGUACAUGAGGAUCACCCAUGUUUUAUGGCUGC" only.
10.8

Send back MS2 coat protein apparent Kd of "GCAAAAUACAUGAGGAUCACCCAUGUUAAGUGGGCCUGAACAAGAAGGCAGCAAAUUUUAUUUUCUGAGGAUAUUGGCAUAUAU" only.
36.8

Send back MS2 coat protein apparent Kd of "CAAGUCGGCAAGGAUAUGAAACGUAUUACAGAUUCAGAAGGUGCUACAUGAGGAUCACCCAUGUGGUCAAUACC" only.
13.1

Send back MS2 coat protein apparent Kd of "AAUAAGAAAGGAUAUACAGAGGAUAAACUAAUAAAUAAAGGACAUGAGGAUCACCCAUGUAGAAGGUUCAAAAU" only.
11.7

Send back MS2 coat protein apparent Kd of "GCCAGCAGUACAUGAGGAUCACCCAUGUCCCUUGUACUUUUAUAGGAUAUACGAGUGGCUACCAUGUAGAAGGAUAGAAUUGUC" only.
606

Send back MS2 coat protein apparent Kd of "AUCAAUGAUCGACAUGAGGAUCACCCAUGUGCUUGGCGACUAAGAAGGGCCAGGCCACCAAGGCGGCAGGAUAUUAGUAGGACC" only.
24.3

Send back MS2 coat protein apparent Kd of "UAUGUAUAGAAGGAUAUCUAAUUACGCCCGAUAAGAGAAGGUCUGACAUGAGGAUCACCCAUGUUAUGGGAGGC" only.
23.3
